All figures here come from patent US20230322924A1.

Recorded MFI at 0 nM mAb (background) by entry
Target: T1, Cyno CD33 full length, expressed on HEK293F cells (cynomolgus monkey)
T1 construct: HEK293F cells transduced with lentivirus containing full length cyno CD33 (Genbank XP_005590138.1); also called cyCD33
Assay: flow cytometry, HEK293F cells expressing cyno CD33
Just the number in MFI, nothing appended.

Field: example entries. Status: answers known.
C33B55 (antibody, IgG1, V domains shown, huIgG1 F405L; also called C33F60; C33H45/C33L11) VH: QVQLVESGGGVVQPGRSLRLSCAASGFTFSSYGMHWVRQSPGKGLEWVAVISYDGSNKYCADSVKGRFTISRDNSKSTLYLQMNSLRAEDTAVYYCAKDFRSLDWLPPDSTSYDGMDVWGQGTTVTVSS VL: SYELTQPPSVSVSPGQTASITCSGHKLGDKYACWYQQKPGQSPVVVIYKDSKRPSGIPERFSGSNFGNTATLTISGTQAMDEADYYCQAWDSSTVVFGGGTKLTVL ... 69.4
C33B54 (antibody, IgG1, V domains shown, huIgG1 F405L; also called C33F59; C33H44/C33L10) VH: QVQLQQSGPGLVKPSQTLSLTCAISGDSVSSNSAAWNWIRQSPSRGLEWLGRTYYRSKWYNDYAVSVRSRITINPDTSKNQFSLQLNSVTPEDTAVYHCARETMFRGLMDYWGQGTLVTVSS VL: SYVLTQPPSVSVAPGQTARITCGGSNIGSKSVHWYQQKPGQAPVMVVYDDSDRPSGIPERFSGSNSGNTATLTISRVEAGDEADYYCQVWDSSSDVVFGGGTKLTVL ... 28800

Now for a further binder.
// lookup MFI at 0 nM mAb (background) for C33B48 (antibody, IgG1, V domains shown, huIgG1 F405L; also called C33F53; C33H80/C33L73) VH: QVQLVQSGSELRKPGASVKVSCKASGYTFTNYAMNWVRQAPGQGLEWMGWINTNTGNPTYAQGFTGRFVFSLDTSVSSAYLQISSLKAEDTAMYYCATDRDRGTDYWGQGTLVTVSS VL: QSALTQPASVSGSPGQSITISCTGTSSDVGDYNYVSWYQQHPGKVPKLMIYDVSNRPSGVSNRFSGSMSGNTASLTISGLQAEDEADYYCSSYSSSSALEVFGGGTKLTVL 94
